- System: human red blood cells (RBC)
- Type: cell-based
Non-standard residues stand in square brackets, D forms with d. Residues, ends and D or L forms follow the SMILES beside them. 2Nal = N[C@@H](Cc1ccc2ccccc2c1)C(=O)O
% lysis @ 500 μg/ml for assorted compounds
measure_name: % lysis @ 500 μg/ml

compound | reading
CC[C@H](C)[C@H](NC(=O)[C@H](Cc1ccc2ccccc2c1)NC(=O)[C@H](CCCNC(=N)N)NC(=O)[C@H](CCCNC(=N)N)NC(=O)[C@H](Cc1ccc2ccccc2c1)NC(=O)[C@H](CCCCN)NC(C)=O)C(N)=O [Pac-401 L, K (2-Nal) R R (2-Nal) I] (Ac-K[2Nal]RR[2Nal]I-NH2) | 14%
CC[C@H](C)[C@H](NC(=O)[C@H](Cc1ccc2ccccc2c1)NC(=O)[C@H](CCCCN)NC(C)=O)C(=O)N[C@@H](CCCCN)C(=O)N[C@@H](Cc1ccc2ccccc2c1)C(=O)N[C@@H](CCCNC(=N)N)C(N)=O [Pac-403 L, K (2-Nal) I K (2-Nal) R] (Ac-K[2Nal]IK[2Nal]R-NH2) | 15%
CC[C@H](C)[C@H](NC(C)=O)C(=O)N[C@@H](Cc1ccc2ccccc2c1)C(=O)N[C@@H](CCCNC(=N)N)C(=O)N[C@H](C(=O)N[C@@H](Cc1ccc2ccccc2c1)C(=O)N[C@@H](CCCNC(=N)N)C(=O)N[C@@H](CCCNC(=N)N)C(=O)N[C@@H](Cc1ccc2ccccc2c1)C(=O)N[C@@H](CCCCN)C(N)=O)C(C)C [Pac-626 L, I (2-Nal) R V (2-Nal) R R (2-Nal) K] (Ac-I[2Nal]RV[2Nal]RR[2Nal]K-NH2) | 14%
CC[C@H](C)[C@H](NC(=O)[C@H](Cc1ccc2ccccc2c1)NC(=O)[C@H](CCCNC(=N)N)NC(=O)[C@@H](NC(=O)[C@H](Cc1ccc2ccccc2c1)NC(=O)[C@H](CCCNC(=N)N)NC(=O)[C@H](CCCNC(=N)N)NC(=O)[C@H](Cc1ccc2ccccc2c1)NC(=O)[C@H](CCCCN)NC(C)=O)C(C)C)C(N)=O [Pac-625 L, K (2-Nal) R R (2-Nal) V R (2-Nal) I] (Ac-K[2Nal]RR[2Nal]VR[2Nal]I-NH2) | 15%

###

MIC against E. coli for assorted compounds
- System: E. coli
- Assay type: cell-based, Escherichia coli
- settings: 18 h
Non-standard residues stand in square brackets, D forms with d. Residues, ends and D or L forms follow the SMILES beside them. 1Nal = N[C@@H](Cc1cccc2ccccc12)C(=O)O; 2Nal = N[C@@H](Cc1ccc2ccccc2c1)C(=O)O

compound | study_system | MIC against E. coli
CC[C@H](C)[C@H](NC(=O)[C@H](Cc1ccc2ccccc2c1)NC(=O)[C@H](CCCNC(=N)N)NC(=O)[C@@H](NC(=O)[C@H](Cc1ccc2ccccc2c1)NC(=O)[C@H](CCCNC(=N)N)NC(=O)[C@H](CCCNC(=N)N)NC(=O)[C@H](Cc1ccc2ccccc2c1)NC(=O)[C@H](CCCCN)NC(C)=O)C(C)C)C(N)=O [Pac-625 L, K (2-Nal) R R (2-Nal) V R (2-Nal) I] (Ac-K[2Nal]RR[2Nal]VR[2Nal]I-NH2) | E. coli | 2 µg/mL
CC[C@H](C)[C@@H]1NC(=O)[C@H](CCCCN)NC(=O)[C@H](Cc2ccc3ccccc3c2)NC(=O)[C@H](CCCNC(=N)N)NC(=O)[C@H](CCCNC(=N)N)NC(=O)[C@H](Cc2ccc3ccccc3c2)NC(=O)[C@H](C(C)C)NC(=O)[C@H](CCCNC(=N)N)NC(=O)[C@H](Cc2ccc3ccccc3c2)NC1=O [Pac-626 C, I (2-Nal) R V (2-Nal) R R (2-Nal) K] (cyclo(I[2Nal]RV[2Nal]RR[2Nal]K); ring closure inferred) | E. coli | 64 µg/mL
CC(C)[C@@H]1NC(=O)[C@H](Cc2ccc3ccccc3c2)NC(=O)[C@H](CCCNC(=N)N)NC(=O)[C@H](CCCNC(=N)N)NC(=O)[C@H](Cc2ccc3ccccc3c2)NC(=O)[C@H](CCCCN)NC1=O [Pac-402 C, K (2-Nal) R R (2-Nal) V] (cyclo(K[2Nal]RR[2Nal]V); ring closure inferred) | E. coli | >64 µg/mL
CC[C@H](C)[C@H](NC(=O)[C@H](Cc1cccc2ccccc12)NC(=O)[C@H](CCCNC(=N)N)NC(=O)[C@@H](NC(=O)[C@H](Cc1cccc2ccccc12)NC(=O)[C@H](CCCNC(=N)N)NC(=O)[C@H](CCCNC(=N)N)NC(=O)[C@H](Cc1cccc2ccccc12)NC(=O)[C@H](CCCCN)NC(C)=O)C(C)C)C(N)=O [Pac-627 L, K (1-Nal) R R (1-Nal) V R (1-Nal) I] (Ac-K[1Nal]RR[1Nal]VR[1Nal]I-NH2) | E. coli | 4 µg/mL
CC[C@H](C)[C@@H]1NC(=O)[C@H](Cc2cccc3ccccc23)NC(=O)[C@H](CCCNC(=N)N)NC(=O)[C@H](C(C)C)NC(=O)[C@H](Cc2cccc3ccccc23)NC(=O)[C@H](CCCNC(=N)N)NC(=O)[C@H](CCCNC(=N)N)NC(=O)[C@H](Cc2cccc3ccccc23)NC(=O)[C@H](CCCCN)NC1=O [Pac-627 C, K (1-Nal) R R (1-Nal) V R (1-Nal) I] (cyclo(K[1Nal]RR[1Nal]VR[1Nal]I); ring closure inferred) | E. coli | 64 µg/mL
CC[C@H](C)[C@@H]1NC(=O)[C@H](Cc2ccc3ccccc3c2)NC(=O)[C@H](CCCNC(=N)N)NC(=O)[C@H](CCCNC(=N)N)NC(=O)[C@H](Cc2ccc3ccccc3c2)NC(=O)[C@H](CCCCN)NC1=O [Pac-401 C, K (2-Nal) R R (2-Nal) I] (cyclo(K[2Nal]RR[2Nal]I); ring closure inferred) | E. coli | >64 µg/mL
CC[C@H](C)[C@@H]1NC(=O)[C@H](Cc2ccc3ccccc3c2)NC(=O)[C@H](CCCCN)NC(=O)[C@H](CCCNC(=N)N)NC(=O)[C@H](Cc2ccc3ccccc3c2)NC(=O)[C@H](CCCCN)NC1=O [Pac-403 C, K (2-Nal) I K (2-Nal) R] (cyclo(K[2Nal]IK[2Nal]R); ring closure inferred) | E. coli | >64 µg/mL
CC(=O)N[C@@H](CCCCN)C(=O)N[C@@H](Cc1ccc2ccccc2c1)C(=O)N[C@@H](CCCNC(=N)N)C(=O)N[C@@H](CCCNC(=N)N)C(=O)N[C@@H](Cc1ccc2ccccc2c1)C(=O)N[C@H](C(N)=O)C(C)C [Pac-402 L, K (2-Nal) R R (2-Nal) V] (Ac-K[2Nal]RR[2Nal]V-NH2; N-terminus and C-terminus assumed) | E. coli | 24 µg/mL
CC[C@H](C)[C@H](NC(C)=O)C(=O)N[C@@H](Cc1ccc2ccccc2c1)C(=O)N[C@@H](CCCNC(=N)N)C(=O)N[C@H](C(=O)N[C@@H](Cc1ccc2ccccc2c1)C(=O)N[C@@H](CCCNC(=N)N)C(=O)N[C@@H](CCCNC(=N)N)C(=O)N[C@@H](Cc1ccc2ccccc2c1)C(=O)N[C@@H](CCCCN)C(N)=O)C(C)C [Pac-626 L, I (2-Nal) R V (2-Nal) R R (2-Nal) K] (Ac-I[2Nal]RV[2Nal]RR[2Nal]K-NH2) | E. coli | 4 µg/mL

###

MIC against E. coli for assorted molecules
- Tested on: E. coli
- Type: cell-based, Escherichia coli
- settings: 18 h
- Protocol: The in vitro antimicrobial activities of antimicrobial agents were tested using standard NCCLS bacterial and fungi inhibition assays or minimum inhibition concentration (MIC) tests. The MIC value is the lowest concentration of peptide at which the visible growth of test organisms was inhibited and reduced. Overnight cultures of the test organisms were diluted to produce an inoculum containing approximately […] in Meuller-Hinton broth (MHB). […]
Non-standard residues stand in square brackets, D forms with d. Residues, ends and D or L forms follow the SMILES beside them. Bip = N[C@@H](Cc1ccc(-c2ccccc2)cc1)C(=O)O; 2Nal = N[C@@H](Cc1ccc2ccccc2c1)C(=O)O

molecule | MIC against E. coli / µg/mL
CC[C@H](C)[C@@H]1NC(=O)[C@H](Cc2ccc(-c3ccccc3)cc2)NC(=O)[C@H](CCCNC(=N)N)NC(=O)[C@H](C(C)C)NC(=O)[C@H](Cc2ccc(-c3ccccc3)cc2)NC(=O)[C@H](CCCNC(=N)N)NC(=O)[C@H](CCCNC(=N)N)NC(=O)[C@H](Cc2ccc(-c3ccccc3)cc2)NC(=O)[C@H](CCCCN)NC1=O [Pac-628 C, K (Bip) R R (Bip) V R (Bip) I] (cyclo(K[Bip]RR[Bip]VR[Bip]I); ring closure inferred) | 64
CC[C@H](C)[C@H](NC(=O)[C@H](Cc1ccc(-c2ccccc2)cc1)NC(=O)[C@H](CCCNC(=N)N)NC(=O)[C@@H](NC(=O)[C@H](Cc1ccc(-c2ccccc2)cc1)NC(=O)[C@H](CCCNC(=N)N)NC(=O)[C@H](CCCNC(=N)N)NC(=O)[C@H](Cc1ccc(-c2ccccc2)cc1)NC(=O)[C@H](CCCCN)NC(C)=O)C(C)C)C(N)=O [Pac-628 L, K (Bip) R R (Bip) V R (Bip) I] (Ac-K[Bip]RR[Bip]VR[Bip]I-NH2) | 2
CC[C@H](C)[C@H](NC(=O)[C@H](Cc1ccc2ccccc2c1)NC(=O)[C@H](CCCNC(=N)N)NC(=O)[C@H](CCCNC(=N)N)NC(=O)[C@H](Cc1ccc2ccccc2c1)NC(=O)[C@H](CCCCN)NC(C)=O)C(N)=O [Pac-401 L, K (2-Nal) R R (2-Nal) I] (Ac-K[2Nal]RR[2Nal]I-NH2) | 16
